Quick reference: activity at 0.5 h, 5 µM of the listed items.
Target: CYP3A4 (Homo sapiens, UniProt P08684)
Sequence (P08684 whole entry): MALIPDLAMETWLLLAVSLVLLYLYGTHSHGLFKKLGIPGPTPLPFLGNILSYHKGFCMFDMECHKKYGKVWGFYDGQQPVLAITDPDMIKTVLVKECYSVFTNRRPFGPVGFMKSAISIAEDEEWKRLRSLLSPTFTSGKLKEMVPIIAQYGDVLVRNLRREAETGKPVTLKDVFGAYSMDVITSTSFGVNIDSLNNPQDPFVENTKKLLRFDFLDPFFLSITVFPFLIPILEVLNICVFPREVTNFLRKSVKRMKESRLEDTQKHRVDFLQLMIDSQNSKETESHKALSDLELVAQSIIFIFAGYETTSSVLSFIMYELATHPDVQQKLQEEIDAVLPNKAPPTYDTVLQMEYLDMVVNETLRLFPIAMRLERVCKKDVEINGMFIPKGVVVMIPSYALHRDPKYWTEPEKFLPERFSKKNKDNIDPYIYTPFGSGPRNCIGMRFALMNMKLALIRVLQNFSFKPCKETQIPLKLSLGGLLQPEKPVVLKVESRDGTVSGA
Experiment: Inhibition of CYP3A4 in human liver microsomes assessed as residual activity at 5 uM after 30 mins
Assay type: ADME, Microsome
Conditions: read-out: Activity

>  <Smiles notation>
Fc1cc(F)cc(Cn2ccc3cnc(Nc4ccc(N5CCOCC5)cc4)nc32)c1

>  <activity at 0.5 h, 5 µM>
37%

$$$$
>  <Smiles notation>
CN1CCN(c2ccc(Nc3ncc4ccn(Cc5cc(F)cc(F)c5)c4n3)cc2)CC1

>  <activity at 0.5 h, 5 µM>
88%

$$$$
>  <Smiles notation>
Fc1ccc(Cn2ccc3cnc(Nc4ccc(N5CCOCC5)cc4)nc32)cc1

>  <activity at 0.5 h, 5 µM>
43%

$$$$
